System: rhythmic bladder voiding contractions
protocol_summary: Volume-induced rhythmic bladder voiding contractions in anaesthetized rats
Format: in vivo
assay_setup: 300 µg/kg i.v.; mean±S.E.
readout_label: FREQUENCY No. contr./15 min after treatment
Please give the number followed by its unit.

Ask: Output measured FREQUENCY No. contr./15 min after treatment for this item: CCN(CC)CC#CCOC(=O)C(O)(c1ccccc1)C1CCCCC1 (stereo not shown)
Reply: 8.8±0.8 No. contr./15 min

Ask: Output measured FREQUENCY No. contr./15 min after treatment for this item: COc1ccccc1N1CCN(CCCCN2C(=O)c3ccccc3C2=O)CC1
Reply: 6.6±1.1 No. contr./15 min

Ask: Output measured FREQUENCY No. contr./15 min after treatment for this item: Cc1c(-c2ccccc2)oc2c(C(=O)OCCN3CCCCC3)cccc2c1=O [Flavoxate, flavoxate]
Reply: 8.8±1.7 No. contr./15 min

Ask: Output measured FREQUENCY No. contr./15 min after treatment for this item: COc1ccccc1N1CCN(CCN(C(=O)C2CCCCC2)c2ccccn2)CC1
Reply: 2.2±0.5 No. contr./15 min

----------
Tested on: cystometric parameters (bladder volume capacity, micturition pressure)
protocol_summary: Cystometric parameters (BVC, MP) in the conscious rat
Assay type: in vivo, rats
assay_setup: 300 µg/kg i.v. group, baseline; mean±S.E.
readout_label: MP before treatment (mmHg)
The figure you give is taken to be in mmHg; do not add the unit.

Ask: Output measured MP before treatment for this item: COc1ccccc1N1CCN(CCCCN2C(=O)c3ccccc3C2=O)CC1
Reply: 86.6

Ask: Output measured MP before treatment for this item: Cc1c(-c2ccccc2)oc2c(C(=O)OCCN3CCCCC3)cccc2c1=O [Flavoxate, flavoxate]
Reply: 89.2

Ask: Output measured MP before treatment for this item: CCN(CC)CC#CCOC(=O)C(O)(c1ccccc1)C1CCCCC1 (stereo not shown)
Reply: 82.3

Ask: Output measured MP before treatment for this item: COc1ccccc1N1CCN(CCN(C(=O)C2CCCCC2)c2ccccn2)CC1
Reply: 78.7

----------
System: rhythmic bladder voiding contractions
protocol_summary: Volume-induced rhythmic bladder voiding contractions in anaesthetized rats
Format: in vivo
assay_setup: 30 µg/kg i.v.; mean±S.E.
readout_label: FREQUENCY No. contr./15 min after treatment
Please give the number followed by its unit.

Ask: Output measured FREQUENCY No. contr./15 min after treatment for this item: O=C(C1CCCCC1)N(CCN1CCN(c2cccc3[nH]ccc23)CC1)c1ccccn1
Reply: 4.5±1.4 No. contr./15 min

Ask: Output measured FREQUENCY No. contr./15 min after treatment for this item: CCN(CC)CC#CCOC(=O)C(O)(c1ccccc1)C1CCCCC1 (stereo not shown)
Reply: 15.5±2.3 No. contr./15 min

Ask: Output measured FREQUENCY No. contr./15 min after treatment for this item: COc1ccccc1N1CCN(CCN(C(=O)C2CCCCC2)c2ccccn2)CC1
Reply: 3.8±0.7 No. contr./15 min

Ask: Output measured FREQUENCY No. contr./15 min after treatment for this item: COc1ccccc1N1CCN(CCCCN2C(=O)c3ccccc3C2=O)CC1
Reply: 11.8±1.5 No. contr./15 min

----------
target_of_assay: α1-adrenergic receptor
protocol_summary: [3H]prazosin binding (α1-receptors), rat cerebral cortices
assay_setup: 0.35 nM [3H]prazosin, read-out: Binding affinity for the α1-adrenergic receptor, Ki
Protocol: [^3H]prazosin binding (α1-receptors): Rat cerebral cortices were homogenized in 50 volumes of ice-cold 50 mM Tris-HCl pH 7.4. The homogenates were centrifuged at 48,000 x g for 10 minutes, and the pellets were resuspended in the same volume of ice-cold buffer, centrifuged, and resuspended two more times. […] Non-specific binding was determined in the presence of 10 µM phentolamine. […] The radioactivity retained on the filters was determined by liquid scintillation counting.
readout_label: Ki (nM)
The figure you give is taken to be in nM; do not add the unit.

Ask: Output measured Ki for this item: O=C(C1CCCCC1)N(CCN1CCN(c2cccc3[nH]ccc23)CC1)c1ccccn1 [Compound B]
Reply: 458

Ask: Output measured Ki for this item: COc1ccccc1N1CCN(CCN(C(=O)C2CCCCC2)c2ccccn2)CC1 [Compound A]
Reply: 296

Ask: Output measured Ki for this item: COc1ccccc1N1CCN(CCCCN2C(=O)c3ccccc3C2=O)CC1 [NAN-190]
Reply: 4.8

----------
Test system: cystometric parameters (bladder volume capacity, micturition pressure)
protocol_summary: Cystometric parameters (BVC, MP) in the conscious rat
Format: in vivo, rats
assay_setup: 300 µg/kg i.v., 15 min after injection; mean±S.E.
readout_label: MP after treatment
Please give the number followed by its unit.

Ask: Output measured MP after treatment for this item: COc1ccccc1N1CCN(CCN(C(=O)C2CCCCC2)c2ccccn2)CC1 [Compound A]
Reply: 70.0±4.1 mmHg

Ask: Output measured MP after treatment for this item: COc1ccccc1N1CCN(CCCCN2C(=O)c3ccccc3C2=O)CC1 [NAN-190]
Reply: 88.4±11.8 mmHg

Ask: Output measured MP after treatment for this item: CCN(CC)CC#CCOC(=O)C(O)(c1ccccc1)C1CCCCC1 (stereo not shown) [Oxybutynin, oxybutynin]
Reply: 50.5±6.3 mmHg

Ask: Output measured MP after treatment for this item: Cc1c(-c2ccccc2)oc2c(C(=O)OCCN3CCCCC3)cccc2c1=O [Flavoxate, flavoxate]
Reply: 95.0±10.9 mmHg
